System: SF-539 CNS
Assay: NCI-60 one-dose screen, 48 h (100 = growth as untreated, 0 = no growth, -100 = all killed)
Conditions: 10 µM unless noted
About 83,000 compounds went through this panel and 20% of them were active in at least one assay; those are over-represented in the sample as a whole.
Assign class by growth: not lower than 90% means Y; lower than 90% means N.

INSERT INTO assay_data (compound, class_name) VALUES
  ('C=C1C(=O)O[C@H]2[C@H]1CC/C(COC(=O)/C=C\C(=O)NCc1ccc(Cn3c(=O)sn(-c4ccc(C#N)cc4)c3=O)cc1)=C\CC[C@@]1(C)O[C@@H]21', 'N'),
  ('Cc1c2c(cn1Cc1ccccc1)CCc1cn(C)nc1-2', 'N'),
  ('CC1(C)C(=O)/C(=C\c2cccnc2)C[C@]2(C)[C@H]3CC=C4[C@@H]5C[C@@](C)(C(=O)O)CC[C@]5(C)CC[C@@]4(C)[C@]3(C)CC[C@@H]12', 'Y'),
  ('CCOC(=O)N1CCc2c(sc3c2C(=O)N[C@H](c2ccc(OC)cc2)N3)C1', 'Y'),
  ('CCCCCCCCn1cc(C2=C(c3coc4ccc(OC)cc34)C(=O)NC2=O)c2ccccc21', 'Y'),
  ('COc1ccc(/C=C2\COc3ccc(O)cc3C2=O)cc1OC', 'N');

Given `Cc1c(Cl)cccc1NS(=O)(=O)c1ccccc1` , state whether its growth is at least 90%.
Y

Given COc1cc(C2CC(c3ccc(Nc4nc(Nc5ccc(F)cc5)nc(Nc5ccc(Cl)cc5)n4)cc3)=NN2C(C)=O)cc(OC)c1OC (stereo not given) , state whether its growth is at least 90%.
N

Values compiled from PubChem BioAssay (NCI).
